These data points were gathered from PubChem BioAssay (Tox21).

Assay overview: qHTS assay to identify small molecule antagonists of the peroxisome proliferator-activated receptor gamma (PPARg) signaling pathway - cell viability counter screen (AID 743194); also: nearly all actives have a fitted effect of over 55% in size; also: potency is read from the fitted curve at half-maximal effect
Setup conditions: PPARg-bla HEK293H viability, CellTiter-Glo luminescence, 17 h, co-treated with 50 nM rosiglitazone; series mostly up to 62.6 µM
Inconclusive results are not listed. Calls of active or inactive are those of the source. Calls follow the shape of the dose curve; as a rule, active = well fitted cell-killing curve with a large enough effect in the repeat runs; inconclusive = weak or mixed curves, or effect the other way; inactive = no such curve, though single readings can be large or run the other way.
Reported property: Potency

[[record]]
compound = "CN(C/C=C/c1ccccc1)Cc1cccc2ccccc12"
result = "inactive"

[[record]]
compound = "O=C(CCN1CCC(c2ccccc2)C1)c1ccc2c(c1)OCCO2 (stereo not drawn)"
result = "inactive"

[[record]]
compound = "CCCCCCCCCCCCN1CCCC1=O"
result = "54.9 µM (active)"

[[record]]
compound = "COc1cc(/C=C/C(=O)CC(=O)/C=C/c2ccc(O)c(OC)c2)ccc1O"
result = "43.9 µM (active)"

[[record]]
compound = "CC(O)(c1ccc(Cl)cc1)c1ccc(Cl)cc1"
result = "inactive"

[[record]]
compound = "CN[C@H]1CC[C@@H](c2ccc(Cl)c(Cl)c2)c2ccc(S(N)(=O)=O)cc21"
result = "49 µM (active)"

[[record]]
compound = "O=C(CCCCCCCCc1cccnc1)N1CCC(C=C(c2ccccc2)c2ccccc2)CC1"
result = "19.5 µM (active)"

[[record]]
compound = "CN1CCN(c2ccccc2/C=C2\\SCCN(c3ccc(Cl)c(Cl)c3)C2=O)CC1"
result = "49 µM (active)"

[[record]]
compound = "CC(=O)[C@]1(O)Cc2c(O)c3c(c(O)c2[C@@H](O[C@H]2C[C@H](N)[C@H](O)[C@H](C)O2)C1)C(=O)c1ccccc1C3=O"
result = "inactive"

[[record]]
compound = "O=C1CCCCCCCCCCCCCC1"
result = "inactive"

[[record]]
compound = "CCCCCCCCOC(=O)c1cc(O)c(O)c(O)c1"
result = "34.7 µM (active)"

[[record]]
compound = "CN1CC[C@H](c2c(O)cc(O)c3c(=O)cc(-c4ccccc4Cl)oc23)[C@H](O)C1"
result = "inactive"

[[record]]
compound = "NCc1cccc(C2CCN(C(=O)c3ccc(C#Cc4ccccc4F)o3)CC2)c1"
result = "19.5 µM (active)"

[[record]]
compound = "CC(C)c1ccc2sc3ccccc3c(=O)c2c1"
result = "inactive"

[[record]]
compound = "O=[N+]([O-])c1ccc(O)c2ncccc12"
result = "inactive"

[[record]]
compound = "N#Cc1nc(Cl)c(Cl)c(Cl)c1Cl"
result = "4.36 µM (active)"

[[record]]
compound = "O=C1OC(=O)c2cc(-c3ccc4c(c3)C(=O)OC4=O)ccc21"
result = "inactive"

[[record]]
compound = "O=C(Nc1ccccc1)c1cc(Cl)ccc1O"
result = "6.92 µM (active)"

[[record]]
compound = "SC1CCCCC1"
result = "inactive"

[[record]]
compound = "Oc1ccc(Cl)cc1C1CCCC1"
result = "inactive"

[[record]]
compound = "Cc1ccc2nc(-c3ccc(N)cc3)sc2c1S(=O)(=O)O"
result = "inactive"

[[record]]
compound = "C[C@H]1O[C@@H](O[C@H]2CC[C@@]3(C)[C@H](CC[C@@H]4[C@@H]3C[C@@H](O)[C@]3(C)[C@@H](C5=CC(=O)OC5)CC[C@]43O)C2)C[C@H](O)[C@@H]1O[C@H]1C[C@H](O)[C@H](O[C@H]2C[C@H](O)[C@H](O[C@@H]3O[C@H](CO)[C@@H](O)[C@H](O)[C@H]3O)[C@@H](C)O2)[C@@H](C)O1"
result = "0.15 µM (active)"

[[record]]
compound = "COc1cc([C@@H]2c3cc4c(cc3[C@@H](O[C@@H]3O[C@@H]5CO[C@@H](C)O[C@H]5[C@H](O)[C@H]3O)[C@H]3COC(=O)[C@H]23)OCO4)cc(OC)c1O"
result = "inactive"

